- Assayed system: HLA DQ molecule DQB1*0503 (human)
- Test protocol: inhibition of radiolabeled peptide binding to purified HLA class II

Binder | IC50 (µM)
GIFLSVAAGNEAENA (modifications not checked) [Pen ch 13 (271-285) peptide …, Peptide ID 3324.1303] | 50

The measured values listed here are drawn from patent US20150004189A1.
